- Test method notes: Viability qHTS for inhibitors of the SERCaMP assay screened against the NCATS CANVASS Library (AID 1347400); also: nearly all actives have a fitted effect of over 70% in size
- Run conditions: SH-SY5Y SERCaMP cells viability, CellTiter-Glo, 48 h; series mostly up to 92.2 µM
Records with an inconclusive call do not appear. The source made the active and inactive calls. Calls follow the shape of the dose curve; as a rule, active = well fitted cell-killing curve with a large enough effect; inconclusive = small, poorly fitted or top-dose-only effect; inactive = flat fitted curve, though single readings scatter.
Answer with one of the outcomes Y for active, N for inactive

q: # outcome recorded in this test, key = `C=CC(C)(C)C(=O)[C@@H](C)[C@@H]1CC[C@](C)(C=C)O1`
a: N

q: # outcome recorded in this test, key = `CO[C@H]1/C=C/CC[C@@H](S[C@@H]2O[C@H](CO)[C@@H](O)[C@H](O)[C@H]2O)CC(=O)O[C@@H](/C(C)=C/[C@H](C)C(=O)CCCC2CC(=O)NC(=O)C2)[C@@H](C)[C@@H]1O`
a: Y

q: # outcome recorded in this test, key = `O=Cc1ccc2n1C[C@@]1(OC2)O[C@H](CO)[C@@H](O)[C@@H]1O`
a: N

q: # outcome recorded in this test, key = CC(=O)O[C@H]1CC[C@@]2(C)C(CC[C@]3(C)C2CC=C2C4CC(C)(C)CC[C@]4(C)CC[C@]23C)C1(C)C (stereo partly drawn)
a: N

q: # outcome recorded in this test, key = C=C1C[C@@]23C=CC(=O)[C@@](C)(CCC(=O)Nc4c(O)ccc(C(=O)O)c4O)C2C[C@@H]1CC3 (stereo partly drawn)
a: N

q: # outcome recorded in this test, key = `CC1=CC2=C[C@H](C)C[C@@]23OC(=C(C)C3=O)CC(C)(C)/C=C/C1=O`
a: Y

q: # outcome recorded in this test, key = `O=C1c2c(O)cc(O)cc2O[C@@H](c2ccc(O)cc2)[C@@H]1c1c(O)cc(O)c2c(=O)cc(-c3ccc(O)c(O)c3)oc12`
a: N

q: # outcome recorded in this test, key = `Cc1cc(O)cc2oc(C[C@H](C)O)cc(=O)c12`
a: N

* * *

- Test method notes: qHTS drug screen for cell cycle checkpoint inhibitors in PARPi-resistant BRCA-mutant ovarian cancer cell lines. (AID 1963452)
- Run conditions: PEO1/OlaR viability, CellTiter-Glo luminescence, 96 h; measured here: PEO4 Z-AUC; stronger effect = lower value
Threshold -0.4. Z-AUC below it: Y. Z-AUC at it or above: N.

q: Input `Nc1ncnc(Nc2ccc(OCc3ccccc3)c(Cl)c2)c1/C=N/OCCN1CCOCC1` ; condition: Z-AUC strictly below -0.4. Does it hold?
a: N

q: Input `COc1cc(OC)cc(N(CCNC(C)C)c2ccc3ncc(-c4cnn(C)c4)nc3c2)c1` ; condition: Z-AUC strictly below -0.4. Does it hold?
a: N

q: Input `CCc1ccc(/C=C2/SC(=S)NC2=O)cc1` ; condition: Z-AUC strictly below -0.4. Does it hold?
a: N

q: Input `COc1ccc2c(c1)CC[C@@H]1[C@@H]2CC[C@]2(C)[C@@H](NCCCCCCN3C(=O)C=CC3=O)CC[C@@H]12` ; condition: Z-AUC strictly below -0.4. Does it hold?
a: N

q: Input `Cc1[nH]c(/C=C2\C(=O)Nc3ccccc32)c(C)c1CCC(=O)O` ; condition: Z-AUC strictly below -0.4. Does it hold?
a: N

q: Input `Cc1cc(/C=c2/sc3nc4ccccc4n3c2=O)c(C)n1-c1ccccc1` ; condition: Z-AUC strictly below -0.4. Does it hold?
a: N

q: Input `COc1cc(-c2cc(-c3ccc(N4CCNCC4)cc3)cnc2C)cc(OC)c1OC` ; condition: Z-AUC strictly below -0.4. Does it hold?
a: Y

q: Input `CCC(=O)Nc1cccc(Oc2nc(Nc3ccc(N4CCN(C)CC4)cc3OC)ncc2Cl)c1` ; condition: Z-AUC strictly below -0.4. Does it hold?
a: N

q: Input `COc1cc2ncnc(Oc3cccc(NC(=O)Nc4cc(C(C)(C)C(F)(F)F)on4)c3)c2cc1OC` ; condition: Z-AUC strictly below -0.4. Does it hold?
a: N

q: Input `Cc1ccc2cc(-c3c(C)ccc(C(=O)c4c(-c5ccccc5)n(C)n(-c5ccccc5)c4=O)c3N)ccc2n1` ; condition: Z-AUC strictly below -0.4. Does it hold?
a: N

q: Input CC(=O)C1CCC2C3CCC4=CC(=O)CCC4(C)C3CCC12C (configuration not stated) ; condition: Z-AUC strictly below -0.4. Does it hold?
a: N

q: Input `O=S(=O)(NCCNC/C=C/c1ccc(Br)cc1)c1cccc2cnccc12` ; condition: Z-AUC strictly below -0.4. Does it hold?
a: N

q: Input C[C@@H]1COCCN1c1cc(C2(S(C)(=N)=O)CC2)nc(-c2ccnc3[nH]ccc23)n1 (some centres not stated) ; condition: Z-AUC strictly below -0.4. Does it hold?
a: Y

q: Input `Cn1c(NC[C@@H](N)Cc2ccccc2)nc(-c2ccncc2)c(-c2ccc3ccccc3c2)c1=O` ; condition: Z-AUC strictly below -0.4. Does it hold?
a: N

q: Input `COc1ccc(CNC(=O)Nc2ncc([N+](=O)[O-])s2)cc1` ; condition: Z-AUC strictly below -0.4. Does it hold?
a: Y

q: Input `O=c1sn(-c2cccc3ccccc23)c(=O)n1Cc1ccccc1` ; condition: Z-AUC strictly below -0.4. Does it hold?
a: N

q: Input `COc1ccc(-c2oc3ncnc(N)c3c2-c2ccc(NC(=O)Nc3cc(C(F)(F)F)ccc3F)cc2)cc1` ; condition: Z-AUC strictly below -0.4. Does it hold?
a: N

q: Input `COC(=O)/C=C/C(=O)N(O)CCCCNCc1ccc(COC(=O)Nc2cccc3ccccc23)cc1` ; condition: Z-AUC strictly below -0.4. Does it hold?
a: N

q: Input `O=C(c1ccc(F)c(F)c1Nc1ccc(I)cc1F)N1CC(O)([C@@H]2CCCCN2)C1` ; condition: Z-AUC strictly below -0.4. Does it hold?
a: Y

q: Input `COc1cc2nc(-c3cc(F)ccc3O)nc(N[C@@H]3CNC[C@H]3C(C)(C)O)c2cc1OC` ; condition: Z-AUC strictly below -0.4. Does it hold?
a: N

q: Input c1ccc(Cn2c(-c3ccc(OCC(C4CCNCC4)n4c(-c5ccccc5)nc5ccccc54)cc3)nc3ccccc32)cc1 (configuration not stated) ; condition: Z-AUC strictly below -0.4. Does it hold?
a: Y

q: Input `NC(=O)c1nc(F)c[nH]c1=O` ; condition: Z-AUC strictly below -0.4. Does it hold?
a: Y

q: Input `Cn1nccc1Nc1nccc(-c2ccn([C@H](CO)c3ccc(Cl)c(F)c3)c(=O)c2)n1` ; condition: Z-AUC strictly below -0.4. Does it hold?
a: N

q: Input `C[C@H]1COCCN1c1cc(C2(S(=O)(=O)C3CC3)CC2)nc(-c2ccc(NC(=S)NCCO)cc2)n1` ; condition: Z-AUC strictly below -0.4. Does it hold?
a: Y

q: Input `Nc1ncnc2c1ncn2[C@@H]1O[C@H](CO)C[C@H]1O` ; condition: Z-AUC strictly below -0.4. Does it hold?
a: N

q: Input `Cc1ccc(NC(=O)Nc2nnc(Sc3ncnc4cc(OCCCN5CCOCC5)ccc34)s2)cc1` ; condition: Z-AUC strictly below -0.4. Does it hold?
a: N

q: Input `FC(F)(F)c1ccc(CNc2ccc(Cc3c[nH]c4ncccc34)cn2)cc1` ; condition: Z-AUC strictly below -0.4. Does it hold?
a: Y

q: Input `CC1(C)CC[C@]2(C(=O)O)CC[C@]3(C)C(=CC[C@@H]4[C@@]5(C)C[C@@H](O)[C@H](O)C(C)(C)[C@@H]5CC[C@]43C)[C@@H]2C1` ; condition: Z-AUC strictly below -0.4. Does it hold?
a: N

q: Input `Cc1c[nH]c(/C=C2\C(=O)Nc3ccccc32)c1CCC(=O)O` ; condition: Z-AUC strictly below -0.4. Does it hold?
a: N

q: Input `C=CC(=O)Nc1cc(Nc2nccc(-c3cn(C)c4ccccc34)n2)c(OC)cc1N(C)CCN(C)C` ; condition: Z-AUC strictly below -0.4. Does it hold?
a: Y

q: Input `O=C(Nc1cc(Oc2cc(F)c(NC(=O)C3(C(=O)Nc4ccc(F)cc4)CC3)cc2F)ccn1)C1CC1` ; condition: Z-AUC strictly below -0.4. Does it hold?
a: Y

q: Input `Cc1ccc(Nc2ncc3c(n2)N(C)C(=O)N(c2cc(NC(=O)c4cccc(C(F)(F)F)c4)ccc2C)C3)cn1` ; condition: Z-AUC strictly below -0.4. Does it hold?
a: Y

q: Input `COCCNCc1ccc(-c2cc3nccc(Oc4ccc(NC(=S)NC(=O)Cc5ccc(F)cc5)cc4F)c3s2)nc1` ; condition: Z-AUC strictly below -0.4. Does it hold?
a: N

q: Input `Cn1cc(-c2cnc3ccc4ccc(CS(=O)(=O)NCc5ccccn5)cc4c(=O)c3c2)cn1` ; condition: Z-AUC strictly below -0.4. Does it hold?
a: Y

q: Input `N#C[C@@H]1C[C@@H]2C[C@@H]2N1C(=O)[C@@H](N)C12CC3CC(CC(O)(C3)C1)C2` ; condition: Z-AUC strictly below -0.4. Does it hold?
a: Y

q: Input `CNC(=O)c1cccc2cc(Oc3ccnc4cc(OCC5(N)CC5)c(OC)cc34)ccc12` ; condition: Z-AUC strictly below -0.4. Does it hold?
a: N
